# targetOrSystem: IGF-1R (Homo sapiens)
# methodNotes: IGFR1 activity assay (ELISA)
# Assay type: biochemical
# conditions: read-out: IGF-1R, PCT INH (30 μM), ELISA
Property: inhibition at 30 µM; scope: individual compounds

Examples with their reported inhibition at 30 µM follow.
inhibition at 30 µM in this record for Cc1ccccc1N(C)C(=O)c1ccc2[nH]c(-c3ccc[nH]c3=O)c(-c3ccccc3)c2c1 [Compound 16] : 80 to 100%

inhibition at 30 µM in this record for COc1ccc(-c2c(-c3ccc[nH]c3=O)[nH]c3ccc(C(=O)NCCCN4CCOCC4)cc23)cc1 [Compound 80] : 80 to 100%

inhibition at 30 µM in this record for O=C(NCCCN1CCOCC1)c1ccc2[nH]c(-c3ccc[nH]c3=O)c(-c3ccc4ncccc4c3)c2c1 [Compound 83] : 80 to 100%

---
inhibition at 30 µM in this record for O=C(c1ccc2[nH]c(-c3ccc[nH]c3=O)c(-c3ccccc3)c2c1)N1CCCCC1 [Compound 17] : 80 to 100%

inhibition at 30 µM in this record for CCOC(=O)N1CCN(C(=O)c2ccc3[nH]c(-c4ccc[nH]c4=O)c(-c4ccc(-c5ccccc5)cc4)c3c2)CC1 [Compound 44] : 50 to 79%

====

Property: inhibition at 30 µM; scope: individual compounds
# targetOrSystem: IGF-1R (Homo sapiens, UniProt P08069)
# Sequence (P08069 31-1367): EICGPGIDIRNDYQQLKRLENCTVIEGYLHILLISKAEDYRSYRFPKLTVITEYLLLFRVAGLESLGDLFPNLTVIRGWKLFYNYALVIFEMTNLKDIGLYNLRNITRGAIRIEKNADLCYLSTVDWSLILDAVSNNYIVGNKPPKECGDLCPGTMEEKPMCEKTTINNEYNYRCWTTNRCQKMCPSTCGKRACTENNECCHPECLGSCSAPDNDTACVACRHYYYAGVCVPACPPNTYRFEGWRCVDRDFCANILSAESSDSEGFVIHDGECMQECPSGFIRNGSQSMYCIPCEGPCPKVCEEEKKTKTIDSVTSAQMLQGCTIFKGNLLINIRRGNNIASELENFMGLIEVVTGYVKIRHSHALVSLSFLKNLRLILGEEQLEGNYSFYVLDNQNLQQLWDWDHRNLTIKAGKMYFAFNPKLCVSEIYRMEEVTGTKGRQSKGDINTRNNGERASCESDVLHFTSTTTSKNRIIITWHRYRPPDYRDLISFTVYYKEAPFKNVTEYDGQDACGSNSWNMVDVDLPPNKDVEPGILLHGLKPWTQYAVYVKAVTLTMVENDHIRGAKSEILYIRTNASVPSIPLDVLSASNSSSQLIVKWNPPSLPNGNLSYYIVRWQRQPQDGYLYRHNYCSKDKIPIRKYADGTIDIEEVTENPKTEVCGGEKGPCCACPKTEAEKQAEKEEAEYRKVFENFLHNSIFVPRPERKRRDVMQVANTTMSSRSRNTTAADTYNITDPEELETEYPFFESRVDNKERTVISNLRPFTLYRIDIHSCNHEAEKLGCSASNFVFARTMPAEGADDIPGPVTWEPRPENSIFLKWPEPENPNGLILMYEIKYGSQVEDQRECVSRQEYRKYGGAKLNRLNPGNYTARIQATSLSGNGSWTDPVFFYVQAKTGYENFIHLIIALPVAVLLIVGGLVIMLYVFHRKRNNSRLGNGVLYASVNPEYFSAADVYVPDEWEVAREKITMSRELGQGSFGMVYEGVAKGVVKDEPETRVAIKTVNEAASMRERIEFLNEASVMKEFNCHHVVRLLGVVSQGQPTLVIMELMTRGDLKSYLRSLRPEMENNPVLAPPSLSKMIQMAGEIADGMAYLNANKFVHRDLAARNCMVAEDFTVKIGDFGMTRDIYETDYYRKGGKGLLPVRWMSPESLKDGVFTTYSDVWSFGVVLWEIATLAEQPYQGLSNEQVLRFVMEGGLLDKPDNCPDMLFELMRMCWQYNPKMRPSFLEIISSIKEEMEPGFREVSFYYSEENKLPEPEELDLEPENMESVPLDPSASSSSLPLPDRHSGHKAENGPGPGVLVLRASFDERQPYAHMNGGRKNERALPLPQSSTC
# methodNotes: IGFR1 activity assay (ELISA)
# Format: biochemical
# conditions: read-out: IGF-1R, PCT INH (30 μM), ELISA

Examples with their reported inhibition at 30 µM follow.
Here `COc1cc2c(cc1OC)CN(C(=O)c1ccc3[nH]c(-c4ccc[nH]c4=O)c(-c4ccccc4)c3c1)CC2` was tested on IGF-1R (Homo sapiens, UniProt P08069), and its inhibition at 30 µM came to < 50%

Here `COc1cccc(-c2c(-c3ccc[nH]c3=O)[nH]c3ccc(C(=O)NCCCN4CCOCC4)cc23)c1` was tested on IGF-1R (Homo sapiens, UniProt P08069), and its inhibition at 30 µM came to 80 to 100%

Here `O=C(NCCCN1CCOCC1)c1ccc2[nH]c(-c3ccc[nH]c3=O)c(Br)c2c1` was tested on IGF-1R (Homo sapiens, UniProt P08069), and its inhibition at 30 µM came to 80 to 100%

Here `O=C(NCCCN1CCOCC1)c1ccc2[nH]c(-c3ccc[nH]c3=O)c(-c3cccc(Cl)c3)c2c1` was tested on IGF-1R (Homo sapiens, UniProt P08069), and its inhibition at 30 µM came to 80 to 100%

Here `Cc1ccc(-c2c(-c3ccc[nH]c3=O)[nH]c3ccc(C(=O)NCCCN4CCOCC4)cc23)cc1` was tested on IGF-1R (Homo sapiens, UniProt P08069), and its inhibition at 30 µM came to 80 to 100%

Here `O=C(c1ccc2[nH]c(-c3ccc[nH]c3=O)c(-c3ccc(-c4ccccc4)cc3)c2c1)N1CCN(c2ccccc2F)CC1` was tested on IGF-1R (Homo sapiens, UniProt P08069), and its inhibition at 30 µM came to < 50%

Please look at the following compound next.
Here `O=C(NCCCN1CCOCC1)c1ccc2[nH]c(-c3ccc[nH]c3=O)c(-c3cc4cccc5c4n3CCC5)c2c1` was tested on IGF-1R (Homo sapiens, UniProt P08069), and its inhibition at 30 µM came to 50 to 79%
